Data credit: ChEMBL document CHEMBL1128559

- System: Mus musculus
- Test Details: In vivo inhibition of phospho-p185erbB-2 expression in FRE/erbB-2 tumors in nu/nu mice at 200 mg/kg dose.
Listing of recorded inhibition in vivo at 200 mg/kg by entry.
Use % as the unit, but write only the number.

Examples from the recorded data:
Compound: CO[C@H]1/C=C\C=C(/C)C(=O)NC2=CC(=O)C(NC(C)C)=C(C[C@@H](C)C[C@H](OC)[C@H](O)[C@@H](C)/C=C(\C)[C@@H]1OC(N)=O)C2=O
System Under Test: Mus musculus
Uom: %
inhibition in vivo at 200 mg/kg: 87

Compound: CO[C@H]1C[C@H](C)CC2=C(N)C(=O)C=C(NC(=O)/C(C)=C/CC[C@H](OC)[C@@H](OC(N)=O)/C(C)=C/[C@H](C)[C@H]1O)C2=O
System Under Test: Mus musculus
Uom: %
inhibition in vivo at 200 mg/kg: 44

Compound: CO[C@H]1/C=C\C=C(/C)C(=O)NC2=CC(=O)C(NCCF)=C(C[C@@H](C)C[C@H](OC)[C@H](O)[C@@H](C)/C=C(\C)[C@@H]1OC(N)=O)C2=O
System Under Test: Mus musculus
Uom: %
inhibition in vivo at 200 mg/kg: 68

Compound: CO[C@H]1C[C@H](C)CC2=C(NCCF)C(=O)C=C(NC(=O)/C(C)=C/CC[C@H](OC)[C@@H](OC(N)=O)/C(C)=C/[C@H](C)[C@H]1O)C2=O
System Under Test: Mus musculus
Uom: %
inhibition in vivo at 200 mg/kg: 53

Compound: CO[C@H]1C[C@H](C)CC2=C(NCC(C)O)C(=O)C=C(NC(=O)/C(C)=C/CC[C@H](OC)[C@@H](OC(N)=O)/C(C)=C/[C@H](C)[C@H]1O)C2=O (stereo partly drawn)
System Under Test: Mus musculus
Uom: %
inhibition in vivo at 200 mg/kg: 32

Value wanted: inhibition in vivo at 200 mg/kg (Mus musculus) of entry CO[C@H]1/C=C\C=C(/C)C(=O)NC2=CC(=O)C(N)=C(C[C@@H](C)C[C@H](OC)[C@H](O)[C@@H](C)/C=C(\C)[C@@H]1OC(N)=O)C2=O
47

Value wanted: inhibition in vivo at 200 mg/kg (Mus musculus) of entry CO[C@H]1/C=C\C=C(/C)C(=O)NC2=CC(=O)C(NC[C@H](C)O)=C(C[C@@H](C)C[C@H](OC)[C@H](O)[C@@H](C)/C=C(\C)[C@@H]1OC(N)=O)C2=O
70

Value wanted: inhibition in vivo at 200 mg/kg (Mus musculus) of entry COCCNC1=C2C[C@@H](C)C[C@H](OC)[C@H](O)[C@@H](C)/C=C(\C)[C@H](OC(N)=O)[C@@H](OC)CC/C=C(\C)C(=O)NC(=CC1=O)C2=O
69
